Tested on: B16
protocol notes: Antitumor activity against mouse B16 cells allografted in BDF1 mouse assessed as increase of median life span at 50 mg/kg, ip on day 1 to 9 measured up to 80 days relative to control
Type: functional
run parameters: route intraperitoneal
Exercise: state measured ILS at 50 mg/kg for each of the molecules provided.
// note: answer is a bare numeric in %

Briefly, ILS at 50 mg/kg measured for O=C1c2c(O)ccc(O)c2C(=O)c2c(NCCCN3CCOCC3)ccc(NCCCN3CCOCC3)c21 : 0

Lab note: measured ILS at 50 mg/kg of CC(=O)NCCNc1ccc(NCCNC(C)=O)c2c1C(=O)c1c(O)ccc(O)c1C2=O was 0

For CCN(CC)CCCC(C)Nc1ccc(NC(C)CCCN(CC)CC)c2c1C(=O)c1c(O)ccc(O)c1C2=O (centres undefined) the molecule record lists ILS at 50 mg/kg as 0

Input CCCNCCNc1ccc(NCCNCCC)c2c1C(=O)c1c(O)ccc(O)c1C2=O . Output ILS at 50 mg/kg: 0

Measured ILS at 50 mg/kg of CN(C)CCCNc1ccc(NCCCN(C)C)c2c1C(=O)c1ccccc1C2=O : 0

get_value(item= O=C1c2c(O)ccc(O)c2C(=O)c2c(NCCNCCNCCO)ccc(NCCNCCNCCO)c21 , readout=ILS at 50 mg/kg) returns 35

// field: ILS at 50 mg/kg; key: CN(C)CCNc1ccc(NCCN(C)C)c2c1C(=O)c1ccccc1C2=O ; value = 39

Reported ILS at 50 mg/kg of CN(C)CCCCCNc1ccc(NCCCCCN(C)C)c2c1C(=O)c1c(O)ccc(O)c1C2=O : 0

Sample CCCCN(CCCC)CCNc1ccc(NCCN(CCCC)CCCC)c2c1C(=O)c1c(O)ccc(O)c1C2=O ; ILS at 50 mg/kg observed: 0
